# System: P. aeruginosa PAO1
# CONDITION INFO: MH broth pH 7.4, 16–20 h, 37 °C
Kindly supply the reported MIC P. aeruginosa PAO1 values for the records listed here.

These recorded examples may help you get a feel for the data.
| STRUCTURE STRING | REPORTED RESULT |
| --- | --- |
| CC(C)C[C@H](NC(=O)[C@H](CC(C)C)NC(=O)[C@@H](CC(C)C)NC(=O)[C@H](CCCCN)NC(=O)[C@@H](CC(C)C)NC(=O)[C@H](CC(C)C)NC(=O)[C@@H](CCCCN)NC(=O)[C@H](CC(C)C)NC(=O)[C@@H](CC(C)C)NC(=O)[C@H](CCCCN)NC(=O)[C@@H](N)CCCCN)C(N)=O | 16 µg/mL |
| CC(C)C[C@H](NC(=O)[C@@H](CC(C)C)NC(=O)[C@H](CC(C)C)NC(=O)[C@@H](CCCCN)NC(=O)[C@H](CC(C)C)NC(=O)[C@@H](CC(C)C)NC(=O)[C@H](CCCCN)NC(=O)[C@@H](CC(C)C)NC(=O)[C@H](CC(C)C)NC(=O)[C@@H](CCCCN)NC(=O)[C@@H](N)CCCCN)C(N)=O | 8 to 16 µg/mL |
| CC(C)C[C@H](NC(=O)[C@H](CCCCN)NC(=O)[C@H](N)CCCCN)C(=O)N[C@@H](CC(C)C)C(=O)N[C@@H](CCCCN)C(=O)N[C@@H](CC(C)C)C(=O)N[C@@H](CC(C)C)C(=O)N[C@@H](CCCCN)C(=O)N[C@@H](CC(C)C)C(=O)N[C@@H](CC(C)C)C(=O)N[C@H](CC(C)C)C(N)=O | 2 µg/mL |

# context switch: different compound, same MIC P. aeruginosa PAO1
Q. // query MIC P. aeruginosa PAO1 value for entry CC(C)C[C@H](NC(=O)[C@H](CC(C)C)NC(=O)[C@H](CC(C)C)NC(=O)[C@@H](CCCCN)NC(=O)[C@@H](CC(C)C)NC(=O)[C@@H](CC(C)C)NC(=O)[C@@H](CCCCN)NC(=O)[C@@H](CC(C)C)NC(=O)[C@H](CC(C)C)NC(=O)[C@H](CCCCN)NC(=O)[C@@H](N)CCCCN)C(N)=O
A. 4 µg/mL

====

Answer each item with its documented MIC PA14.
# System: P. aeruginosa PA14
# MEASUREMENT PROTOCOL: microbe, parasite or virus in culture
# CONDITION INFO: MH broth pH 7.4, 16–20 h, 37 °C
Numbers only, in µg/mL.

Field: example entries. Status: answers known.
| STRUCTURE STRING | TARGET OR SYSTEM | MIC PA14 (µg/mL) |
| --- | --- | --- |
| CC(C)C[C@H](NC(=O)[C@H](CC(C)C)NC(=O)[C@H](CC(C)C)NC(=O)[C@H](CCCCN)NC(=O)[C@H](CC(C)C)NC(=O)[C@H](CC(C)C)NC(=O)[C@H](CCCCN)NC(=O)[C@@H](CC(C)C)NC(=O)[C@H](CC(C)C)NC(=O)[C@@H](CCCCN)NC(=O)[C@@H](N)CCCCN)C(N)=O | P. aeruginosa PA14 | 2 |
| CC(C)C[C@H](NC(=O)[C@H](CC(C)C)NC(=O)[C@H](CC(C)C)NC(=O)[C@H](CCCCN)NC(=O)[C@H](CC(C)C)NC(=O)[C@H](CC(C)C)NC(=O)[C@H](CCCCN)NC(=O)[C@H](CC(C)C)NC(=O)[C@H](CC(C)C)NC(=O)[C@@H](CCCCN)NC(=O)[C@@H](N)CCCCN)C(N)=O | P. aeruginosa PA14 | 2 |

Q. Requested field: MIC PA14. Item: CC(C)C[C@@H](NC(=O)[C@@H](CC(C)C)NC(=O)[C@@H](CC(C)C)NC(=O)[C@H](CCCCN)NC(=O)[C@@H](CC(C)C)NC(=O)[C@@H](CC(C)C)NC(=O)[C@H](CCCCN)NC(=O)[C@@H](CC(C)C)NC(=O)[C@@H](CC(C)C)NC(=O)[C@H](CCCCN)NC(=O)[C@@H](N)CCCCN)C(N)=O
A. 1

====

# Tested on: A. baumannii ATCC19606
# CONDITION INFO: MH broth pH 7.4, 16–20 h, 37 °C
Kindly state MIC A. baumannii ATCC19606 for each of the entries shown.
One number for each entry, in µg/mL.

| STRUCTURE STRING | MIC A. baumannii ATCC19606 [µg/mL] |
| --- | --- |
| CC(C)C[C@H](NC(=O)[C@H](CC(C)C)NC(=O)[C@H](CC(C)C)NC(=O)[C@H](CCCCN)NC(=O)[C@@H](CC(C)C)NC(=O)[C@@H](CC(C)C)NC(=O)[C@H](CCCCN)NC(=O)[C@H](CC(C)C)NC(=O)[C@H](CC(C)C)NC(=O)[C@H](CCCCN)NC(=O)[C@@H](N)CCCCN)C(N)=O | 4 |

Q. I would be grateful if you could share the reported MIC A. baumannii ATCC19606 for CC(C)C[C@@H](NC(=O)[C@@H](CC(C)C)NC(=O)[C@@H](CC(C)C)NC(=O)[C@@H](CCCCN)NC(=O)[C@@H](CC(C)C)NC(=O)[C@@H](CC(C)C)NC(=O)[C@@H](CCCCN)NC(=O)[C@@H](CC(C)C)NC(=O)[C@@H](CC(C)C)NC(=O)[C@@H](CCCCN)NC(=O)[C@H](N)CCCCN)C(N)=O .
A. 4

====

# Test system: K. pneumoniae NCTC418
# CONDITION INFO: supplementary CSV; ranges of Table 1 given as one number
# Procedure: Antimicrobial activity was determined for all peptides on E. coli W3110, P. aeruginosa PAO1, A. baumannii ATCC19606, K. pneumoniae NCTC418, and methicillin-resistant S. aureus COL and for selected peptides on P. aeruginosa PA14 and the polymyxin B-resistant derivatives PA14 4.13, PA14 4.18, and PA14 2P4 as well as the clinical isolates ZEM-1A and ZEM9A, K. pneumoniae OXA-48, Enterobacter cloacae, Stenotrophomonas maltophilia, B. cenocepacia, and Staphylococus epidermis. […]
Consider the cut-off 4 µg/mL. If the recorded MIC K. pneumoniae NCTC418 is strictly smaller, the label is MET; if not, the label is NOT MET.

| STRUCTURE STRING | ASSIGNED LABEL |
| --- | --- |
| CC(C)C[C@H](NC(=O)[C@H](CC(C)C)NC(=O)[C@H](CC(C)C)NC(=O)[C@H](CCCCN)NC(=O)[C@H](CC(C)C)NC(=O)[C@H](CC(C)C)NC(=O)[C@@H](CCCCN)NC(=O)[C@H](CC(C)C)NC(=O)[C@H](CC(C)C)NC(=O)[C@@H](CCCCN)NC(=O)[C@@H](N)CCCCN)C(N)=O | NOT MET |

Turning to the following compound.
Q. Take the compound CC(C)C[C@H](NC(=O)[C@H](CCCCN)NC(=O)[C@H](N)CCCCN)C(=O)N[C@@H](CC(C)C)C(=O)N[C@@H](CCCCN)C(=O)N[C@@H](CC(C)C)C(=O)N[C@@H](CC(C)C)C(=O)N[C@@H](CCCCN)C(=O)N[C@@H](CC(C)C)C(=O)N[C@@H](CC(C)C)C(=O)N[C@H](CC(C)C)C(N)=O and say whether its MIC K. pneumoniae NCTC418 is less than 4 µg/mL.
A. MET

====

# System: P. aeruginosa PA14
# MEASUREMENT PROTOCOL: microbe, parasite or virus in culture
# CONDITION INFO: MH broth pH 7.4, 16–20 h, 37 °C
Please provide measured MIC PA14 for the entries that follow.
Numbers only, in µg/mL.

| STRUCTURE STRING | TARGET OR SYSTEM | MEASURE NAME | REPORTED RESULT |
| --- | --- | --- | --- |
| CC(C)C[C@H](NC(=O)[C@H](CC(C)C)NC(=O)[C@H](CC(C)C)NC(=O)[C@H](CCCCN)NC(=O)[C@H](CC(C)C)NC(=O)[C@H](CC(C)C)NC(=O)[C@@H](CCCCN)NC(=O)[C@H](CC(C)C)NC(=O)[C@H](CC(C)C)NC(=O)[C@@H](CCCCN)NC(=O)[C@H](N)CCCCN)C(N)=O | P. aeruginosa PA14 | MIC PA14 | 2 |

Q. What measured MIC PA14 goes with CC(C)C[C@H](NC(=O)[C@H](CC(C)C)NC(=O)[C@H](CC(C)C)NC(=O)[C@H](CCCCN)NC(=O)[C@@H](CC(C)C)NC(=O)[C@H](CC(C)C)NC(=O)[C@H](CCCCN)NC(=O)[C@@H](CC(C)C)NC(=O)[C@@H](CC(C)C)NC(=O)[C@@H](CCCCN)NC(=O)[C@@H](N)CCCCN)C(N)=O ?
A. 1
